All values here come from PubChem BioAssay (NCI).

# Test system: T-47D breast
# test: NCI-60 one-dose screen, 48 h
# details: 10 µM unless noted
# Protocol: Growth inhibition of the T-47D human tumor cell line is measured as a screen for anti-cancer activity. Cells are grown in 96 well plates and exposed to the test compound for 48 hours. Compounds are tested at a single concentration, which is 10^-5 M for most compounds. The reported endpoint is percent growth (GI% or GIPRCNT), where numbers from 0 - 100% represent growth inhibition, and numbers from -100% - 0 represent cell death. For example, a value of 40 represents 60% growth inhibition. […]
About 83,000 compounds went through this panel and 20% of them were active in at least one assay; those are over-represented in the sample as a whole. Activity calls are given as the source filed them. The calls were made as follows: active = growth percent below 10; inactive = the rest.
Please answer using one outcome listed in active, inactive

Solved cases (3 shown):
{"compound": "CNc1ccc(NC)c2c1C(=O)c1ccccc1C2=O", "tgt": "T-47D breast", "class": "inactive"}
{"compound": "O=C(/C=C/c1c(Cl)nc2sccn12)c1ccc(F)c(F)c1", "tgt": "T-47D breast", "class": "inactive"}
{"compound": "O=C(/C=C/c1cccc(O)c1)c1cccc(-n2cc(-c3ccc4ccccc4c3)[nH]c2=O)c1", "tgt": "T-47D breast", "class": "active"}

-- ask Can you look up the reported call for CC(=O)C(C)Cc1cc2c(cc1C)C(C)(C)CCC2(C)C (stereo not given) for me?
-- reply inactive

-- ask Can you look up the reported call for COc1ccc(NC(=O)CSc2nc(C)c(C(C)=O)n2-c2ccc([N+](=O)[O-])cc2)cc1 for me?
-- reply inactive
